Tested on: NCI/ADR-RES ovarian
Assay: NCI tumour cell line growth inhibition, 48 h
resultType: GI50

For orientation, consider the following solved cases.
CCCC(c1nnnn1C1CCCCC1)N1CCN(C(=O)c2ccco2)CC1 (stereo unspecified): > 100 µM
FC(F)(F)c1ccc(-c2cnc(Cl)nc2NC2CCCCCC2)cc1: > 100 µM
NCCOc1ncccc1/C=C1\c2ccccc2-c2ccc(F)cc21: 1.24 µM
Cc1cc2c([nH]1)CSc1cc(S(=O)(=O)c3ccccc3)c(=O)[nH]c1-2: 0.445 µM
N#Cc1c(-c2ccccc2)cc(-c2ccccc2)n(CC(=O)NO)c1=O: 3.41 µM

Query compound follows.
Recorded GI50 (compound COc1ccc(/C=C/c2nnc(/C=C/c3ccc(OC)c(OC)c3)o2)cc1OC ): 3.52 µM

----------
System: RPMI-8226 leukemia
Experiment: NCI tumour cell line growth inhibition, 48 h; in the data active = GI50 below about 0.43 µM; inactive = the rest
// one of 1 for active, -1 for inactive, no free text

Cc1cc(C)c(-c2cc(O)c(-c3c(C)cc(C)cc3C)cc2O)c(C)c1: -1

Per the records of this test, what outcome belongs to COc1cc(C(=O)/C=C/c2ccc(OCCCCCC[P+](c3ccccc3)(c3ccccc3)c3ccccc3)cc2)cc(OC)c1OC ? 1

Per the records of this test, what outcome belongs to COc1cc(/C=N/Nc2ncnc3[nH]ncc23)ccc1O ? -1

Per the records of this test, what outcome belongs to FC(F)(F)c1ccc(-c2cnc(Cl)nc2NC2CCCCCC2)cc1 ? -1

Per the records of this test, what outcome belongs to C=Cc1ccccc1 (tested in a mixture with another compound) ? -1

Per the records of this test, what outcome belongs to CCN1CCC(Oc2c(C#N)ncc3[nH]c4ncccc4c23)CC1 ? -1

Per the records of this test, what outcome belongs to N#Cc1c(-c2ccccc2)cc(-c2ccccc2)n(CC(=O)NO)c1=O ? -1

Per the records of this test, what outcome belongs to CC(=O)c1nc2ccccc2n1CCN1CCN(C)CC1 ? -1

Per the records of this test, what outcome belongs to COc1ccc(/C=C/c2nnc(/C=C/c3ccc(OC)c(OC)c3)o2)cc1OC ? -1

Per the records of this test, what outcome belongs to CNc1ccc(C(=O)CC(O)CCC(C)C2OC(=O)CC(O)CC(=O)CC(O)CC(O)CC(O)CC(O)CC3(O)CC(O)C(C(=O)NCCN(C)C)C(CC(OC4OC(C)C(O)C(NC(=O)CN5CCN(CCO)CC5)C4O)/C=C/C=C/C=C/C=C\C=C/C=C/C=C/C2C)O3)cc1 (centres undefined) ? -1

Per the records of this test, what outcome belongs to C=C(C)C(=O)Oc1ccc(N=Nc2ccc(C)cc2)ccc1=O ? -1

----------
Tested on: NCI-H23 lung
Assay: NCI tumour cell line growth inhibition, 48 h
The following compounds are shown together with reported TGI values.

c1ccc(-c2cc(-c3cccs3)c(-c3cccs3)s2)cc1: 60.2 µM
O=CNCCCN1CCN(CCCNC=O)CC1: > 100 µM
CC(=O)CC1(OC(=O)C2C(C=C(C)C)C2(C)C)C(=O)Nc2ccccc21 (centres undefined): > 100 µM
Cc1c(-c2ccccc2)c(C#N)c2nnn(-c3ccc([N+](=O)[O-])cc3)c(=O)n12: 86.5 µM

TGI on NCI-H23 lung for [O-]c1ccccc1/C=N/c1nccs1.[O-]c1ccccc1/C=N/c1nccs1.[O]=[U+2]=[O] is > 100 µM

TGI on NCI-H23 lung for N=[N+]=NC1C(O)C(CO)OC1n1cnc2c(N)ncnc21 (centres undefined) is > 80 µM

TGI on NCI-H23 lung for Clc1ccc(CCC(Cn2ccnc2)Sc2c(Cl)cccc2Cl)cc1 (centres undefined) is 15.5 µM

TGI on NCI-H23 lung for COc1cc2c(c(OC)c1OC)-c1cccc(=O)cc1C(NC(C)=O)CC2 (centres undefined) is 11.1 µM

TGI on NCI-H23 lung for CCCc1c(Cl)nc(Cl)nc1Cl is 4.3 µM

TGI on NCI-H23 lung for Cn1ncc2c(Sc3ccc(Cl)cc3)ncnc21 is > 100 µM

TGI on NCI-H23 lung for CC1CSC(=S)N1C(=O)N1C(=S)SCC1C (centres undefined) is 43.1 µM

TGI on NCI-H23 lung for CCC12CCCN3CCc4c(n(c5ccccc45)C(O)(C(=O)OC)C1)C32 (centres undefined) is > 100 µM

TGI on NCI-H23 lung for COc1ccc(/C=C/c2nnc(/C=C/c3ccc(OC)c(OC)c3)o2)cc1OC is > 100 µM

TGI on NCI-H23 lung for COc1cc2oc3c(c(=O)c2c(O)c1/C=C/C(C)C)CCC(C)(C)Oc1cc(O)ccc1-3 is 30.1 µM

TGI on NCI-H23 lung for CC(=O)N1CCc2[nH]c3ccccc3c2CC1 is > 100 µM

----------
System: ACHN renal
Experiment: NCI tumour cell line growth inhibition, 48 h; in the data active means GI50 below about 0.43 µM; inactive means the rest
// one of active, inactive, no free text

CCN1CCC(Oc2c(C#N)ncc3[nH]c4ncccc4c23)CC1: inactive
CCCCNCC(O)c1cc2c(Cl)cc(Cl)cc2c2cc(C(F)(F)F)ccc12 (stereo not given): inactive
COc1ccc(Nc2nccc(Nc3ccc4[nH]ncc4c3)n2)cc1: inactive
NCCOc1ncccc1/C=C1\c2ccccc2-c2ccc(F)cc21: active
COc1ccc(/C=C/c2nnc(/C=C/c3ccc(OC)c(OC)c3)o2)cc1OC: inactive
Cc1cc(C)c(-c2cc(O)c(-c3c(C)cc(C)cc3C)cc2O)c(C)c1: inactive
Cn1cc(-c2nc3c(F)cc4[nH]ncc4c3c3c2CCCC3)c(C(F)(F)F)n1: inactive
O=S1CCN(Cc2ccc(-c3ccc4ncnc(Nc5ccc(OCc6ccccc6)c(Cl)c5)c4c3)o2)CC1: inactive
CCN(Cc1ccncc1)c1ccc(CO)c(Cl)c1: inactive
CS(=O)(=O)Nc1cc(-c2ccc3ncnc(Nc4ccc5c(cnn5Cc5cccc(F)c5)c4)c3c2)cnc1Cl: inactive

Per the records of this test, what outcome belongs to Cc1cc(-c2ncc(-c3cccnc3)cc2/C=C/c2ccccc2)cnc1-c1cccnc1 ? inactive

Per the records of this test, what outcome belongs to COc1ccc(C2CC(c3cc(Cl)c(C)cc3O)=NN2c2ccc(S(N)(=O)=O)cc2)cc1OC (stereo not given) ? inactive

Per the records of this test, what outcome belongs to Cn1ncc2c(Sc3ccc(Cl)cc3)ncnc21 ? inactive

Per the records of this test, what outcome belongs to O=C1Nc2ccccc2/C1=C/C(=N/c1nnc(-c2ccccc2)s1)c1ccccc1 ? inactive

Per the records of this test, what outcome belongs to COC1=CC(c2ccc[nH]2)=N/C1=C\c1[nH]c(C)c(C(=O)CCCCC(=O)NCc2ccccc2)c1C ? inactive

----------
Tested on: MCF7 breast
Assay: NCI tumour cell line growth inhibition, 48 h
resultType: GI50

For orientation, consider the following solved cases.
COc1ccc(C2CC(c3cc(Cl)c(C)cc3O)=NN2c2ccc(S(N)(=O)=O)cc2)cc1OC (stereo not given): 3.07 µM
Nc1cc2c([nH]c[n+]2CC#CCCl)c(SCC#CCCl)n1: 0.442 µM
O=S1CCN(Cc2ccc(-c3ccc4ncnc(Nc5ccc(OCc6ccccc6)c(Cl)c5)c4c3)o2)CC1: > 15.2 µM
COc1cc(C2=NNC(c3ccc(N(C)C)cc3)C2)cc(OC)c1OC (stereo not given): 0.433 µM

Query molecule follows.
Recorded GI50 (molecule CCCCCCCCc1ccc(OCCOCC[N+](C)(C)CC)cc1 (tested in a mixture with another compound) ): 3.05 µM

----------
Test system: SN12C renal
Test: NCI tumour cell line growth inhibition, 48 h
resultType: GI50

For orientation, consider the following solved cases.
CCCCCCCCc1ccc(OCCOCC[N+](C)(C)CC)cc1 (tested in a mixture with another compound): 3.07 µM
CCN(Cc1ccncc1)c1ccc(CO)c(Cl)c1: > 100 µM
FC(F)(F)c1ccc(-c2cnc(Cl)nc2NC2CCCCCC2)cc1: > 100 µM
COc1cc(/C=N/Nc2ncnc3[nH]ncc23)ccc1O: 13.6 µM
Cc1cc(C)c(-c2cc(O)c(-c3c(C)cc(C)cc3C)cc2O)c(C)c1: 5.52 µM
COc1cc(C2=NNC(c3ccc(N(C)C)cc3)C2)cc(OC)c1OC (stereo not given): 4.63 µM
O=S1CCN(Cc2ccc(-c3ccc4ncnc(Nc5ccc(OCc6ccccc6)c(Cl)c5)c4c3)o2)CC1: 14.8 µM
Cc1cc(-c2ncc(-c3cccnc3)cc2/C=C/c2ccccc2)cnc1-c1cccnc1: 3.59 µM
C[C@@]12C(=O)OC(=O)[C@]1(C)[C@H]1CC[C@@H]2O1: 1.58 µM

Recorded GI50 (molecule O=S1CCN(Cc2ccc(-c3ccc4ncnc(Nc5ccc(OCc6cccc(F)c6)c(Cl)c5)c4c3)o2)CC1 ): 7.77 µM

----------
Test system: RXF 393 renal
Assay: NCI tumour cell line growth inhibition, 48 h
resultType: TGI (µM)
Number only, in µM; omit the unit.

For orientation, consider the following solved cases.
O=C(O/N=C1/CCCC/C1=C\c1ccccc1)c1ccc(Cl)c(Cl)c1: 60.2
COc1cccc(C2c3cc4c(cc3OC(NNc3ccccc3)C2C)OCO4)c1O (stereo not drawn): 29.6
Cc1cc(OCC(O)CO)ccc1-c1ccccc1 (stereo not drawn): 87.1

Recorded TGI (compound COc1ccc(Nc2nccc(Nc3ccc4[nH]ncc4c3)n2)cc1 ): 6.45

Recorded TGI (compound NCCOc1ncccc1/C=C1\c2ccccc2-c2ccc(F)cc21 ): 3.66

Recorded TGI (compound COc1cc2c(c(OC)c1OC)-c1cccc(=O)cc1C(NC(C)=O)CC2 (stereo not drawn) ): 0.952

Recorded values, source PubChem BioAssay (NCI).
